Assay: Pharmacokinetic analysis, plasma concentration by LC/MS
Assay type: in vivo
Settings: rat, plasma; rats; MTX 1 mg/kg only

compound	AUC(0-inf) [ng·h/mL]
CN(Cc1cnc2nc(N)nc(N)c2n1)c1ccc(C(=O)N[C@@H](CCC(=O)O)C(=O)O)cc1 [MTX, Methotrexate]	1510

====

Each record here notes measured Body weight (g) 8th day.
Assay: Analysis of body weights in AIA model
Assay type: in vivo, Lewis rats
Settings: Table 19 study; compound 10 mg/kg once per day P.O.
Protocol: Lewis rats (female, five-weeks old) were purchased from Central Lab Animal, Inc. and kept in a controlled environment with a temperature at 22±2° C., a humidity at 44-56% and a light/dark cycle of 12 hours, while being allowed to have a free access to standard diet and water for one week before an examination. […]

compound	Body weight (g) 8th day
O=C(NO)c1ccc(CN(C(=O)N2CCCOCC2)c2cccc(F)c2)cc1	152.8
COc1cccc(N(Cc2ccc(C(=O)NO)cc2)C(=O)N2CCOCC2)c1	151.4
O=C(NO)c1ccc(CN(C(=O)N2CCOCC2)c2cccc(F)c2)cc1	151.2
O=C(NO)c1ccc(CN(C(=O)N2CCOCC2)c2ccc(F)cc2F)cc1	151.3
O=C(NO)c1ccc(CN(C(=O)N2CCOCC2)c2cccc(C(F)(F)F)c2)cc1	151.3

====

Assay: Pharmacokinetic analysis, plasma concentration by LC/MS
Type: in vivo
Conditions: rat, plasma; rats; MTX 1 mg/kg only; read-out: AUC0→8h
Protocol: A bioequivalence was evaluated through a pharmacokinetic test on administration of the inventive compound 374 (SM374) and MTX in combination as well as administration of MTX only. […]
measurementName: AUC(0-t)

molecule	measurementName	experimentalResult
CN(Cc1cnc2nc(N)nc(N)c2n1)c1ccc(C(=O)N[C@@H](CCC(=O)O)C(=O)O)cc1 [MTX, Methotrexate]	AUC(0-t)	1500 ng·h/mL

====

Tested on: adjuvant-induced arthritis (AIA) model
Experiment: Clinical score analysis in adjuvant-induced arthritis (AIA) model
Format: in vivo, Lewis rats
Design: scale not given here
Settings: Table 17 study; compound 10 mg/kg once per day P.O.; Mean ± SEM
Description: Lewis rats (female, five-weeks old) were purchased from Central Lab Animal, Inc. and kept in a controlled environment with a temperature at 22±2° C., a humidity at 44-56% and a light/dark cycle of 12 hours, while being allowed to have a free access to standard diet and water for one week before an examination. […]
Each record here notes measured Clinical score 18th day.

compound	Clinical score 18th day
O=C(NO)c1ccc(CN(C(=O)N2CCOCC2)c2ccc(F)cc2F)cc1	6.3
COc1cccc(N(Cc2ccc(C(=O)NO)cc2)C(=O)N2CCOCC2)c1	4.9
O=C(NO)c1ccc(CN(C(=O)N2CCCOCC2)c2cccc(F)c2)cc1	4.9
O=C(NO)c1ccc(CN(C(=O)N2CCOCC2)c2cccc(F)c2)cc1	4.2
O=C(NO)c1ccc(CN(C(=O)N2CCOCC2)c2cccc(C(F)(F)F)c2)cc1	4.8

====

Experiment: Pharmacokinetic analysis, plasma concentration by LC/MS
Format: in vivo
Details: rat, plasma; rats; MTX 1 mg/kg only; time 0.5 hr
measurementName: concentration at 0.5 hr (ng/mL)

compound	measurementUnits	experimentalResult
CN(Cc1cnc2nc(N)nc(N)c2n1)c1ccc(C(=O)N[C@@H](CCC(=O)O)C(=O)O)cc1 [MTX, Methotrexate]	ng/mL	1300

====

Each record here notes measured Body weight (g) 18th day.
Test: Analysis of body weights in AIA model
Assay type: in vivo, Lewis rats
Conditions: Table 19 study; compound 10 mg/kg once per day P.O.
measurementName: Body weight (g) 18th day

compound	measurementUnits	experimentalResult
O=C(NO)c1ccc(CN(C(=O)N2CCOCC2)c2cccc(C(F)(F)F)c2)cc1	g	157.6
O=C(NO)c1ccc(CN(C(=O)N2CCOCC2)c2ccc(F)cc2F)cc1	g	155.2
O=C(NO)c1ccc(CN(C(=O)N2CCCOCC2)c2cccc(F)c2)cc1	g	156.8
O=C(NO)c1ccc(CN(C(=O)N2CCOCC2)c2cccc(F)c2)cc1	g	159.2
COc1cccc(N(Cc2ccc(C(=O)NO)cc2)C(=O)N2CCOCC2)c1	g	158.3

====

Experiment: Pharmacokinetic analysis, plasma concentration by LC/MS
Type: in vivo
Conditions: rat, plasma; rats; MTX 1 mg/kg only

molecule	Cmax
CN(Cc1cnc2nc(N)nc(N)c2n1)c1ccc(C(=O)N[C@@H](CCC(=O)O)C(=O)O)cc1 [MTX, Methotrexate]	1300 ng/mL
